Assay Method Text: yeast display, Sf9 membrane polyspecificity reagent, FACS + sequencing; frameworks hold sequencing errors
Measured Endpoint: polyreactivity (PSR sort gate)

Biopolymer Sequence: QVQLVESGGGLVQAGGSLRLSCAASGRTLSGYVMGWYRQAPGKERELVATISNGGSTYYADSVKGRFTISRDNAKNTVYLQMNSLKPEDTAVYYCNRYWYRKHSTDPPVRYRPVGYWGQGTQVTVSS
Reading: high polyreactivity

Biopolymer Sequence: QVQLVESGGGLVQAGGSLRLSCAASGFIFWYYGMGWYRQAPGKERELVAAINWSGTSTNYADSVKGRFTISRDNAKNTVYLQMNSLKPEDTAVYYCAAEYWYTYSWGQGTQVTVLS
Reading: low polyreactivity

Biopolymer Sequence: QVQLVESGGGLVQAGGSLRLSCAASGSIFYWNAMGWYRQAPGKERELVAAISSSGSSTYYADSVKGRFTISRDNAKNTVYLQMNSLKPEDTAVYYCAADNYNSGGTRHMYYWGQGTQVTVSS
Reading: high polyreactivity

Biopolymer Sequence: QVQLVESGGALVQAGRSLRLSCAASGSIFSSYAMGRYRQAPGKERELVAAISRSGGRTYYADSVKGRFTITRDNAKNTVYLQMNSLKTEDTAVYYCAARRVLGEYGYWGQGTQVTVSS
Reading: high polyreactivity

Biopolymer Sequence: QDQLVESGGGLVQEGGSLRLSCAAYGTIFQIYAMGWYIQAPGKERELVAAINSGGISKYADSVKGRFTISRDNAKNSVYLQMNSLTPADTAVYYCAASVDTGRYSVYYHGYTYDYWGQGTQVTVSS
Reading: low polyreactivity

Biopolymer Sequence: QVQLVESGGGLVQAGGSLRLSCAASGSTFRDYAMGWYRQAPGKERELVAAITQNGGSTYYADSVKGRFTISRDNAKNSVYLQMNSLKPEDTAVYDCAADSDWFVWQEDYWGQGTQVTVSS
Reading: low polyreactivity

Biopolymer Sequence: QVQLVESGAGLVQAGGSLRLSCAPSGIIFYWNTMAWYRQAPGKERELVAAISSRSGSTYYADSVKGRFTISRDNAKNTVYLQMISLKPEDTAVFYCAARYGYRYADKGTDYGYWGQGTQVTVSS
Reading: high polyreactivity

Biopolymer Sequence: QVQLVESGGGLVQAGGSLRLSCAASGSIFASNAMGWYRQAPGKERELVAAIDDDGSTDYADSVKGRFTISRDNAKNTVYLQMNSLKPEDTAVYYCAVVTFWWGWTKYRGGFYWGQGTQVTVSS
Reading: low polyreactivity

Biopolymer Sequence: QVQLVGAGGGLVHAGGSLLLSCAASGFTLGSNAMGWYRQAPGKERALVAASSKSGGSTYYADSVKGRFTISRDNAKNTVYLQMTSLKPEDTAGYYCAARPIHYPPYYYWGQGTQVTVSS
Reading: high polyreactivity

Biopolymer Sequence: QVQLVESAGGLVQAGGSLRLSCAASGRTLSNYAMGWYREAPGKERELVAVISQSGGRTYYADSVKGRFTISRDNAKNTVYLQLNSLKPEDTAVYYCNVDISWLRRKFDYWGQVTQVTVSS
Reading: low polyreactivity

Biopolymer Sequence: QVQLVESGGGLVQAGGSLRLSCAASGSIFGRNAMGWYRQAPGKERELVARISSRGGSTYYADSVKGRFTISRDNAKNTVYLQLISLKREDTALYYCAAEGGDRYALYTFYTWGQGTQVTVSS
Reading: high polyreactivity

###

Assay Method Text: yeast display, Sf9 membrane polyspecificity reagent, FACS + sequencing; frameworks hold sequencing errors

Biopolymer Sequence: QVQLVESGGGLVQAGGSLRLRCAASGFTIGANTMGWYRQAPGKEWELVASISASGGSTYYADSVKGRVTISRDNAKNTVYVQMNSLKPDDTAGYYCAARRYPGRTATYYSWGQGTQVTVSS
polyreactivity (PSR sort gate): high polyreactivity
//
Biopolymer Sequence: QVQLVESGRGLVQAGGSLRLSCAASGRIFFKYAMGRYRPAPGKERELVAAISSSGGRTSYADSVKGRFTISRDNAKNTVYLQMNSLKPEDTAVYYCNVKPSARGSPLYDYWGQGTQVTVSS
polyreactivity (PSR sort gate): high polyreactivity
//
Biopolymer Sequence: QVQLVESGGGLVQAGGSLRLSCAASGRTSRNNVMGSYRQAPGKERELVAAITKRTDRTYYADSVKGRFTISRDNAKNTVYLQMNSLKPEDTAVYYCAADLSLSTGGRAFPTYGYWGQGTQVTVSS
polyreactivity (PSR sort gate): high polyreactivity
//
Biopolymer Sequence: QVQLVESGGGLVQAGGSLRLSCAASGRIFYYYAMGWYRQAPGKERELVAAITSGGRTYYADSVKGRFTISRDNAKNTVYLQMNSLKPEDTAVYYCAADRTYTYLGPGYEYWGQGTQVTVSS
polyreactivity (PSR sort gate): low polyreactivity
//
Biopolymer Sequence: QAQLQESGGSLVQAGGGLRLSCAASGYISVGSVMGWYRQAPSKERELVASIDQGANTNYADSVKGRFTISRNNAKNNVYLQMNSLKTEDTAVYYCATETTYILNYCGQGTQVTVSS
polyreactivity (PSR sort gate): low polyreactivity

###

Assay Method Text: yeast display, Sf9 membrane polyspecificity reagent, FACS + sequencing; frameworks hold sequencing errors
Measured Endpoint: polyreactivity (PSR sort gate)

Biopolymer Sequence: QVQLVESGGGLVQEGGSLRLSCAASGFTFAQYALGWYRQAPGNERELVAAISRRGGRTYYADSVTGRFTISRDIAKNTVYLQMTSLKPEDSAVSYCAADGGYQDDYDYWGQGTQVTVSS
Measured Endpoint: polyreactivity (PSR sort gate)
Reading: high polyreactivity

Biopolymer Sequence: QVQLVESGGGLVQAGGSLRLSCAASGFIFHYYAMGRYRQAPGKERELVAAISWNGGSTNYSDSVKGRFTISRDNAKNTVYLQMNSLKPEDTAVYYCATTDPYYDVDYWGQGTQVTVSS
Measured Endpoint: polyreactivity (PSR sort gate)
Reading: low polyreactivity

Biopolymer Sequence: QVQLLESGGGLVPAGGSLRLSCAASGRIFSRYAMGWYRQAPGKERELVAAISRNGGSTYYADSVKGRFTISRDNAKNTVYLQMISLKPEDTAVYYCAASYFIYHYDFDYWGQGTQVTVSS
Measured Endpoint: polyreactivity (PSR sort gate)
Reading: high polyreactivity

Biopolymer Sequence: QVQLVESGGGLVQAGGSLRLSCAASGRIFLYYAMGWYRQAPGKERELVAAITRSGGTTYYADSVKGRFTISRDNAKNTVYLQMNSLKPEDTAVYYCAALGQYSRADYEYWGQGTQVTVSS
Measured Endpoint: polyreactivity (PSR sort gate)
Reading: high polyreactivity

Biopolymer Sequence: QVQLVESGGGKLQAGGSLRLSCAASGIILYVYAMGWYRQAPGKARELVAAITWSGGSTYYADSEKGRFTISRDNAKNTVYLQMNSLKPEDTAVYYCAVDVHTSADASLPQEYDYWGPGTQVTVSS
Measured Endpoint: polyreactivity (PSR sort gate)
Reading: low polyreactivity

Biopolymer Sequence: QVQLVESGGCLVQAGGSLRLSCAASGNIFGIYTMGLYTHAPGKERELVASIRTGGSTNYADSVKGRFTISRDNAKNTDYLQMNSLKPEDSSVYYCNARKLFSSSYGYWGQGTQVTVSS
Measured Endpoint: polyreactivity (PSR sort gate)
Reading: high polyreactivity

Biopolymer Sequence: QVQLVESGGSLVQAGGSLRLSCAASGSTFTKYVMGWYRQAPGKERELVAAISQSGTRTYYADSVKGRFTISRDNAKNTVYLQMNSLKPEDTAVYYCNKPVRNGSYHNRYNYWGQGTQVTVSS
Measured Endpoint: polyreactivity (PSR sort gate)
Reading: high polyreactivity

Biopolymer Sequence: QVQLVESGGGLVQAGGSLRLSCAASGHIFSRYAMGWFRQAPGKERDLVATITNRGGSTYYADSVKGRFTISRDNAKNSVYLQMNSLKPEDTAVYYCARRTKSYVSHPLDYWGQGTQVTVSS
Measured Endpoint: polyreactivity (PSR sort gate)
Reading: high polyreactivity

Biopolymer Sequence: QVQLVESGGGLVQAGGSLRLSCAASGRTFAFYAMGWYRQAPGKERELVASISSSGDRTYYADSVKGRFTISRDNAKNTVYLQMNSLKPEDTAVYYCAARWRYTYYYWGQGTQVTVSS
Measured Endpoint: polyreactivity (PSR sort gate)
Reading: high polyreactivity

Biopolymer Sequence: QFQLVDSGRGLVQAGGSLRVSCAASGITFAYYAMGWYRQAPGKERELVAAISRSGGGTYYADSVKGRFTISRDNAKNPVYLQMNSLKPEDTAVYYCNKDYPYYYAGDGRFDYWGQGTQVTVSS
Measured Endpoint: polyreactivity (PSR sort gate)
Reading: high polyreactivity

Biopolymer Sequence: QVQLVESGGGLVQAGGSLRLSCAASGFTFYYYTMGWYRQAPGKERELVAVITLSDGSTNYADSVKGRFTISRDNAKNTVYLQMNSLKPEDTAVYYCDAKYVDYGYHGYDYWGQGTQVTVSS
Measured Endpoint: polyreactivity (PSR sort gate)
Reading: low polyreactivity

###

Assay Method Text: yeast display, Sf9 membrane polyspecificity reagent, FACS + sequencing; frameworks hold sequencing errors

Biopolymer Sequence: QVQLVESGGGLVQAGGSLRLSCAASGSIFNGYAMGWYRQAPGKERELVAAISKRGGSTYYADSVKGRFTISRDNAKNTVYLQMNSLKPEDTAVYYCAARRLFPYGYWGQGTQVTVSS
polyreactivity (PSR sort gate): high polyreactivity

Biopolymer Sequence: QFQLVESGGGLVQAGGSLRLSCAASGIIFTTYVMGWYRQAPGKERELVAAISRGGRTYYADSVKGRFTSSRDNAKNTVYLQMNSLKPEDTAVYYCARVAYKGYGEDDYWGQGTQVTVSS
polyreactivity (PSR sort gate): high polyreactivity
